Value source: paper PMC2323325

# studySystem: T1, FBF-2 (Caenorhabditis elegans, UniProt Q09312 162-566)
# T1 sequence: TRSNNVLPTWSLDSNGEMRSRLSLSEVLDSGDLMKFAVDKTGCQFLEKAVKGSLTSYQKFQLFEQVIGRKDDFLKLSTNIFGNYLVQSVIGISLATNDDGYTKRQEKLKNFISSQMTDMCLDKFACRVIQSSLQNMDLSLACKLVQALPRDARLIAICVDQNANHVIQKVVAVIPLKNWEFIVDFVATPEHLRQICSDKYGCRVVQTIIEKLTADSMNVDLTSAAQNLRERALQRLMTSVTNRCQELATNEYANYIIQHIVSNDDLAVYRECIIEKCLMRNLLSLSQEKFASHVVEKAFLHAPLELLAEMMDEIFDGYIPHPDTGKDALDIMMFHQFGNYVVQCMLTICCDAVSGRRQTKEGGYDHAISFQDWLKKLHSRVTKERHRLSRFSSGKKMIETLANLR
# testSummary: EMSA; Not stated; gel shift assays performed as described in ref 49
# experimentalParameters: protein: recombinant
pKd: −log10 of the molar value.
testReadout: pKd

Quick one: pKd for AGUUUCUUUUUCGAUGUAUCAUAAUCCA (ssRNA) [mpk-1 FBEa] ?
~7.03

Then what about the binder UAUUUUACGUAUUUUGUAAUAUAUUCAU (ssRNA) [mpk-1 FBEb] ?
~6.49
